Quick record: MIC, Klebsiella pneumonia ATCC 43816.

{"Compound": "N[C@@H]1CC(=O)N(c2ccc(S(=O)(=O)N3CCN(c4cc(C(F)(F)[C@H]5CC[C@H](C(=O)N6C[C@H](N)C[C@H](N)C6)CC5)cc(Cl)n4)CC3)cc2)C1 [Example 048]", "Target": "Klebsiella pneumonia ATCC 43816", "Bound Operator": "=", "MIC [µg/mL]": 1.2}
{"Compound": "C[N+](CCN)(CCN)CCCNC(=O)[C@H]1CC[C@H](C(F)(F)c2cc(Cl)nc(N3CCN(S(=O)(=O)c4ccc(N5C[C@H](N)CC5=O)cc4)CC3)c2)CC1 [Example 065]", "Target": "Klebsiella pneumonia ATCC 43816", "Bound Operator": "=", "MIC [µg/mL]": 0.66}
{"Compound": "CN(C)CCCNC(=O)c1ccc(C(F)(F)c2cc(Cl)nc(N3CCN(S(=O)(=O)c4ccc(N5C[C@H](N)CC5=O)cc4)CC3)c2)nc1 [Example 027]", "Target": "Klebsiella pneumonia ATCC 43816", "Bound Operator": "=", "MIC [µg/mL]": 3.2}
{"Compound": "NC1CC(=O)N(c2ccc(S(=O)(=O)N3CCN(c4cc(C(F)(F)[C@H]5CC[C@H](C(=O)NCCCO)CC5)cc(Cl)n4)CC3)cc2)C1 (stereo partly shown) [Example 003]", "Target": "Klebsiella pneumonia ATCC 43816", "Bound Operator": "=", "MIC [µg/mL]": 2.1}
{"Compound": "NCCCN(CCCN)C(=O)C12CCC(C(F)(F)c3cc(Cl)nc(N4CCN(S(=O)(=O)c5ccc(N6C[C@H](N)CC6=O)cc5)CC4)c3)(CC1)CC2 [Example 045]", "Target": "Klebsiella pneumonia ATCC 43816", "Bound Operator": "=", "MIC [µg/mL]": 0.62}
{"Compound": "NCCCNC(=O)C12CCC(C(F)(F)c3cc(Cl)nc(N4CCN(S(=O)(=O)c5ccc(N6C[C@H](N)CC6=O)cc5)CC4)c3)(CC1)C2 [Example 034]", "Target": "Klebsiella pneumonia ATCC 43816", "Bound Operator": "=", "MIC [µg/mL]": 1.1}
{"Compound": "NCCNC(=O)[C@H]1CC[C@H](C(F)(F)c2cc(Cl)nc(N3CCN(S(=O)(=O)c4ccc(N5C[C@H](N)CC5=O)cc4)CC3)c2)CC1 [Example 041]", "Target": "Klebsiella pneumonia ATCC 43816", "Bound Operator": "=", "MIC [µg/mL]": 0.54}
{"Compound": "NCCCN(CCCN)C(=O)[C@H]1CC[C@H](C(F)(F)c2cc(Cl)nc(N3CCN(S(=O)(=O)c4ccc(N5C[C@H](N)CC5=O)cc4)CC3)c2)CC1 [Example 044]", "Target": "Klebsiella pneumonia ATCC 43816", "Bound Operator": "=", "MIC [µg/mL]": 1.2}
{"Compound": "NCC(N)CNC(=O)[C@H]1CC[C@H](C(F)(F)c2cc(Cl)nc(N3CCN(S(=O)(=O)c4ccc(N5C[C@H](N)CC5=O)cc4)CC3)c2)CC1 (stereo partly shown) [Example 077]", "Target": "Klebsiella pneumonia ATCC 43816", "Bound Operator": "=", "MIC [µg/mL]": 2.2}
{"Compound": "NCC[N+]1(CCNC(=O)[C@H]2CC[C@H](C(F)(F)c3cc(Cl)nc(N4CCN(S(=O)(=O)c5ccc(N6C[C@H](N)CC6=O)cc5)CC4)c3)CC2)CCCC1 [Example 074]", "Target": "Klebsiella pneumonia ATCC 43816", "Bound Operator": "=", "MIC [µg/mL]": 1.9}
{"Compound": "C[N+](C)(CCCN)CCCNC(=O)[C@H]1CC[C@H](C(F)(F)c2cc(Cl)nc(N3CCN(S(=O)(=O)c4ccc(N5C[C@H](N)CC5=O)cc4)CC3)c2)CC1 [Example 084]", "Target": "Klebsiella pneumonia ATCC 43816", "Bound Operator": "=", "MIC [µg/mL]": 0.81}
{"Compound": "NCCCN(CCCN)C(=O)C12CCC(C(F)(F)c3cc(Cl)nc(N4CCN(S(=O)(=O)c5ccc(N6C[C@H](N)CC6=O)cc5)CC4)c3)(CC1)C2 [Example 046]", "Target": "Klebsiella pneumonia ATCC 43816", "Bound Operator": "=", "MIC [µg/mL]": 1.2}
{"Compound": "NCCCNC(=O)[C@H]1CC[C@H](C(F)(F)c2cc(Cl)nc(N3CCN(S(=O)(=O)c4ccc(N5C[C@@H](CO)OC5=O)cc4)CC3)c2)CC1 [Example 058]", "Target": "Klebsiella pneumonia ATCC 43816", "Bound Operator": "=", "MIC [µg/mL]": 1.1}
{"Compound": "NCC(O)CNC(=O)[C@H]1CC[C@H](C(F)(F)c2cc(Cl)nc(N3CCN(S(=O)(=O)c4ccc(N5C[C@H](N)CC5=O)cc4)CC3)c2)CC1 (stereo partly shown) [Example 036]", "Target": "Klebsiella pneumonia ATCC 43816", "Bound Operator": "=", "MIC [µg/mL]": 1.1}
{"Compound": "NCCCNC(=O)[C@H]1CC[C@H](C(F)(F)c2cc(Cl)nc(N3CCN(S(=O)(=O)c4ccc(N5CC(N6CCNCC6)CC5=O)cc4)CC3)c2)CC1 (stereo partly shown) [Example 060]", "Target": "Klebsiella pneumonia ATCC 43816", "Bound Operator": "=", "MIC [µg/mL]": 1.2}
{"Compound": "CNC(=O)c1ccc(C(F)(F)c2cc(Cl)nc(N3CCN(S(=O)(=O)c4ccc(N5CC(NCCCN)CC5=O)cc4)CC3)c2)cc1 (stereo not shown) [Example 078]", "Target": "Klebsiella pneumonia ATCC 43816", "Bound Operator": "=", "MIC [µg/mL]": 2.1}
{"Compound": "NCCCNC(=O)[C@H]1CC[C@@H](C(F)(F)c2cc(Cl)nc(N3CCN(S(=O)(=O)c4ccc(N5C[C@H](N)CC5=O)cc4)CC3)c2)CC1 [Example 031]", "Target": "Klebsiella pneumonia ATCC 43816", "Bound Operator": "=", "MIC [µg/mL]": 2.2}
{"Compound": "NC[C@@H]1CN(C(=O)[C@H]2CC[C@H](C(F)(F)c3cc(Cl)nc(N4CCN(S(=O)(=O)c5ccc(N6C[C@H](N)CC6=O)cc5)CC4)c3)CC2)C[C@@H]1CN [Example 067]", "Target": "Klebsiella pneumonia ATCC 43816", "Bound Operator": "=", "MIC [µg/mL]": 0.57}
{"Compound": "N[C@@H]1C[C@H](N)CN(CCCNC(=O)[C@H]2CC[C@H](C(F)(F)c3cc(Cl)nc(N4CCN(S(=O)(=O)c5ccc(N6C[C@H](N)CC6=O)cc5)CC4)c3)CC2)C1 [Example 049]", "Target": "Klebsiella pneumonia ATCC 43816", "Bound Operator": "=", "MIC [µg/mL]": 1.2}
{"Compound": "CC(=O)N1CCc2cc(S(=O)(=O)N3CCN(c4cc(Cl)cc(C(F)(F)F)c4)CC3)ccc21 [JH-LPH-33, reference compound]", "Target": "Klebsiella pneumonia ATCC 43816", "Bound Operator": ">", "MIC [µg/mL]": 24}
{"Compound": "N[C@@H]1CC(=O)N(c2ccc(S(=O)(=O)N3CCN(c4cc(C(F)(F)[C@H]5CC[C@H](C(=O)N[C@H]6CCC(N7C[C@H](N)C[C@H](N)C7)C6)CC5)cc(Cl)n4)CC3)cc2)C1 (stereo partly shown) [Example 081]", "Target": "Klebsiella pneumonia ATCC 43816", "Bound Operator": "=", "MIC [µg/mL]": 0.65}
{"Compound": "NCCN(CCN)C(=O)[C@H]1CC[C@H](C(F)(F)c2cc(Cl)nc(N3CCN(S(=O)(=O)c4ccc(N5C[C@H](N)CC5=O)cc4)CC3)c2)CC1 [Example 043]", "Target": "Klebsiella pneumonia ATCC 43816", "Bound Operator": "=", "MIC [µg/mL]": 1.1}

* * *

Quick record: MIC, Klebsiella pneumonia ATCC 43816.

{"Structure Smiles": "NCC(=O)NNC(=O)[C@H]1CC[C@H](C(F)(F)c2cc(Cl)nc(N3CCN(S(=O)(=O)c4ccc(N5C[C@H](N)CC5=O)cc4)CC3)c2)CC1", "Target": "Klebsiella pneumonia ATCC 43816", "MIC": "1.1 µg/mL"}
{"Structure Smiles": "NC(=O)[C@H]1CC[C@H](C(F)(F)c2cc(Cl)nc(N3CCN(S(=O)(=O)c4ccc(N5C[C@H](N)CC5=O)cc4)CC3)c2)CC1", "Target": "Klebsiella pneumonia ATCC 43816", "MIC": "1.1 µg/mL"}
{"Structure Smiles": "NCCCNC(=O)C12CCC(C(F)(F)c3cc(Cl)nc(N4CCN(S(=O)(=O)c5ccc(N6C[C@H](N)CC6=O)cc5)CC4)c3)(CC1)CC2", "Target": "Klebsiella pneumonia ATCC 43816", "MIC": "0.43 µg/mL"}

The measurements presented in this section are drawn from patent US20240417387A1.
